These data points were gathered from ChEMBL document CHEMBL1138288.

system: San Angelo virus; test: Antiviral activity against San Angelo virus-infected Vero cells; type: functional, organism-based; details: vero
pIC50: −log10 of the molar value.
measurementKind: pIC50

>>> print(df.to_string())
                                   compound  resultvalue
0  O=C(Nc1ccccn1)c1ccc2[nH]c(-c3ccc(NC(=O)C45CC6CC(CC(C6)C4)C5)cc3)nc2c1 (stereo in doubt; 1d)         6.70
1  O=C(Nc1ccccn1)c1ccc2[nH]c(-c3ccc(NC(=O)C45CC6CC(CC(C6)C4)C5)cc3)nc2c1 (stereo in doubt; 1h)         7.70

----------
tested on: Human alphaherpesvirus 2; test: Antiviral activity against HSV2-infected Vero cells; type: functional, organism-based; details: Human alphaherpesvirus 2, Vero
measurementKind: log10 IC50 (log10 of the value in µM)

>>> print(df.to_string())
                                   molecule  resultvalue
0  O=C(Nc1ccc(-c2nc3cc(NC(=O)C45CC6CC(CC(C6)C4)C5)ccc3[nH]2)cc1)C12CC3CC(CC(C3)C1)C2        -1.70
1  O=C(Nc1ccc(-c2nc3cc(NC(=O)C4CCCCC4)ncc3[nH]2)cc1)C1CCCCC1        -1.70
2  O=C(Nc1ccc(-c2nc3cc(NC(=O)C45CC6CC(C4)C(O)C(C6)C5)ncc3[nH]2)cc1)C12CC3CC(CC(C3)C1)C2 (configuration not stated)        -1.05
3  O=C1C2CC3CC1CC(C(=O)Nc1ccc(-c4nc5cc(NC(=O)C67CC8CC(CC(C8)C6)C7)ncc5[nH]4)cc1)(C3)C2        -0.60
4  O=C(Nc1ccccn1)c1cc2nc(-c3ccc(NC(=O)C45CC6CC(CC(C6)C4)C5)cc3)[nH]c2cn1        -0.22
5  O=C(Nc1ccc(-c2nc3cc(NC(=O)C45CC6CC(CC(C6)C4)C5)ncc3[nH]2)cc1)C12CC3CC(CC(C3)C1)C2        -2.30

----------
test system: Murine hepatitis virus; assay: Antiviral activity against mouse hepatitis virus-infected NCTC clone-1469 cells; format: functional, organism-based; conditions: Murine coronavirus
pIC50: −log10 of the molar value.
measurementKind: pIC50

In [3]: df
Out[3]:
                                   compound  measurementkind  limitsign  resultvalue
0  CC(=O)OC1C2CC3CC1CC(C(=O)Nc1ccc(-c4nc5cc(C(=O)Nc6ccccn6)ccc5[nH]4)cc1)(C3)C2 (stereo not drawn)            pIC50          <         6.22
1  O=C(Nc1ccccn1)c1ccc2[nH]c(-c3ccc(NC(=O)C45CC6CC(CC(C6)C4)C5)cc3F)nc2c1            pIC50          =         7.22
2  O=C(Nc1ccc(-c2nc3cc(NC(=O)C4CCCCC4)ccc3[nH]2)cc1)C1CCCCC1            pIC50          =         7.70
3  O=C(Nc1ccc(-c2nc3cc(C(=O)NC45CC6CC(CC(C6)C4)C5)ccc3[nH]2)cc1)c1ccc(Cl)c(Cl)c1            pIC50          =         8.10
4  O=C(Nc1ccc(-c2nc3cc(NC(=O)C4CCCCC4)ncc3[nH]2)cc1)C1CCCCC1            pIC50          =         7.82
5  O=C(Nc1ccccn1)c1cc2nc(-c3ccc(NC(=O)C45CC6CC(CC(C6)C4)C5)cc3)[nH]c2cn1            pIC50          =         7.30
6  O=C(Nc1ccc(-c2nc3cc(NC(=O)C4CCCCC4)ccc3[nH]2)cc1)c1ccc(Cl)c(Cl)c1            pIC50          =         7.70
7  O=C(Nc1ccc(-c2nc3cc(NC(=O)C45CC6CC(C4)C(O)C(C6)C5)ncc3[nH]2)cc1)C12CC3CC(CC(C3)C1)C2 (stereo not drawn)            pIC50          =         6.70
